Test: Formation of 1,5-cz-[Ln(Lig)] from Lig and Ln^III ions (metal dependent click-zip), MOPS/NaOH buffer pH 7.0, analytical HPLC (Charts 1, 2)
Conditions: Tb^III; after 1 week at 80° C.; MOPS/NaOH buffer pH 7.0
assayEndpoint: conversion to 1,5-cz-[Ln(Lig)], Tb^III

smilesStr | conversion to 1,5-cz-[Ln(Lig)], Tb^III
C#Cc1cccc(CN2CCN(CP(=O)(O)c3ccccc3)CCN(Cc3cccc(CN=[N+]=[N-])n3)CCN(CP(=O)(O)c3ccccc3)CC2)n1 | 41%
[N-]=[N+]=NCc1cccc(CN2CCN(CC(=O)O)CCN(Cc3cccc(C#CC4CCNCC4)n3)CCN(CC(=O)O)CC2)n1 | 72%
C#Cc1cccc(CN2CCN(CP(=O)(O)OCC)CCN(Cc3cccc(CN=[N+]=[N-])n3)CCN(CP(=O)(O)OCC)CC2)n1 | 82%

# ---- query compound ----
[in] Recorded conversion to 1,5-cz-[Ln(Lig)], Tb^III of C#Cc1cccc(CN2CCN(CC(=O)O)CCN(Cc3cc(C(=O)OC)cc(CN=[N+]=[N-])n3)CCN(CC(=O)O)CC2)n1 , please.
[out] 0%

###

Each item that follows carries a reported fraction of intact chelate.
Assay: Dissociation of chelates in aq. 0.1M HCl at RT (acid decomplexation kinetic inertness) (Chart 20)
Format: physicochemical
Settings: 1 week
Report as a plain number; the unit % is understood.

compound | u | recordedMeasurement
O=C1C[N@@]2CC[N@]3CC[N@@](CC[N@](CC2)Cc2cccc(n2)-c2cnnn2Cc2cc(-c4ccccc4)cc(n2)C3)CC(=O)[O][Nd][O]1 [TD868] | % | 54
O=C1C[N@@]2CC[N@]3CC[N@@](CC[N@](CC2)Cc2cccc(n2)-c2cnnn2Cc2cc(-c4ccccc4)cc(n2)C3)CC(=O)[O][Ce][O]1 [TD870] | % | 0
O=C([O-])CN1CCN2CCN(CC(=O)[O-])CCN(CC1)Cc1cccc(n1)-c1cnnn1Cc1cc(-c3ccccc3)cc(n1)C2.[Zn+2] [TD890] | % | 54

[in] Recorded fraction of intact chelate of O=C1C[N@@]2CC[N@]3CC[N@@](CC[N@](CC2)Cc2cccc(n2)-c2cnnn2Cc2cc(-c4ccccc4)cc(n2)C3)CC(=O)[O][Lu][O]1 [TD522] , please.
[out] 100

[in] Let us now turn to O=C([O-])CN1CCN2CCN(CC(=O)[O-])CCN(CC1)Cc1cccc(n1)-c1cnnn1Cc1cc(-c3ccccc3)cc(n1)C2.[Ca+2] [TD863]
[out] 0

[in] Let us now turn to O=C1C[N@@]2CC[N@]3CC[N@@](CC[N@](CC2)Cc2cccc(n2)-c2cn(nn2)Cc2cc(-c4ccccc4)cc(n2)C3)CC(=O)[O][Lu][O]1 [TD874]
[out] 14

[in] Let us now turn to O=C1C[N@@]2CC[N@]3CC[N@@](CC[N@](CC2)Cc2cccc(n2)-c2cnnn2Cc2cc(-c4ccccc4)cc(n2)C3)CC(=O)[O][Eu][O]1 [TD599]
[out] 100

###

Experiment: Alkali metal dependent formation of 1,5-cz-Lig and 1,4-cz-Lig isomers from Lig at pH 10.2 (Chart 14)
Type: physicochemical
Conditions: B: 1 day at 80° C.; Borate/(M^I)2CO3 buffer pH 10.2; visible analyte free precipitate
Each item that follows carries a reported conversion to 1,4-cz-Lig isomer, Li^I.
Report as a plain number; the unit % is understood.

In the examples that follow, each entry is paired with its recorded conversion to 1,4-cz-Lig isomer, Li^I.
molecule | conversion to 1,4-cz-Lig isomer, Li^I, %
C#Cc1cccc(CN2CCN(CC(=O)O)CCN(Cc3cc(-c4ccccc4)cc(CN=[N+]=[N-])n3)CCN(CC(=O)O)CC2)n1 [TD647] | 2
C#Cc1cccc(CN2CCN(CC(=O)O)CCN(Cc3cccc(CN=[N+]=[N-])n3)CCN(CP(=O)(O)O)CC2)n1 [TD714] | 12

# ---- query molecule ----
[in] Recorded conversion to 1,4-cz-Lig isomer, Li^I of C#Cc1cccc(CN2CCN(CP(=O)(O)c3ccccc3)CCN(Cc3cccc(CN=[N+]=[N-])n3)CCN(CP(=O)(O)c3ccccc3)CC2)n1 [TD921] , please.
[out] 6

Provenance of the data: patent US20250147039A1
